B1: INTS3 (parent)
chain: AQLQALRQKEVDFCISLLRERFME

# Variants of: B1
# TEST: protein stability index of a GFP-peptide fusion (GPS, HEK-293T) (PSI 1-6); higher = more stable;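 further: lentivirally expressed fusions sorted by FACS into six bins by GFP to DsRed ratio, PSI derived from sequencing read proportions per bin multiplied by bin number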
# CONDITION_CONTEXT: c terminus: a fixed tail appended
Catalogue of protein stability index values
Just the number, please, no unit attached.

# annotated cases, reported protein stability index shown
{"VARIANT_SPEC": "L6D", "protein stability index": 1.96}
{"VARIANT_SPEC": "C14P", "protein stability index": 2.03}
{"VARIANT_SPEC": "L18N", "protein stability index": 1.97}
{"VARIANT_SPEC": "R19L", "protein stability index": 2.02}
{"VARIANT_SPEC": "L6Q", "protein stability index": 2.02}

Data point: `V11R` ; protein stability index = 1.99

Data point: `L6R` ; protein stability index = 2.02
